molecular target: HLA A*3001 (Homo sapiens, UniProt P04439, D140H/D185E/E176W/F33S/G80R/H175R/K168Q/R138E/R41S); assay: biochemical; type: binding
Normalized average relative binding affinity(ARB) of 0.2 or higher: satisfied. Under 0.2: not satisfied.

macromolecule-sequence | assigned-category
XXXXXXLXX [3064.0130] | satisfied
XXXXXXXKX [3064.0149] | not satisfied
XXXXXHXXX [3064.0107] | not satisfied
XXXXXRXXX [3064.0115] | satisfied
XXXXLXXXX [3064.0090] | not satisfied
XXXXXGXXX [3064.0106] | not satisfied
XXXXGXXXX [3064.0086] | satisfied
XXXXXKXXX [3064.0109] | not satisfied
XXXXXXSXX [3064.0136] | not satisfied
XXXXXLXXX [3064.0110] | satisfied
XXXXXQXXX [3064.0114] | satisfied
XXXXXXWXX [3064.0139] | not satisfied
XXXXXWXXX [3064.0119] | not satisfied
XXXXXXRXX [3064.0135] | not satisfied
XXXXXAXXX [3064.0101] | satisfied
XXXXXIXXX [3064.0108] | satisfied
XXXXSXXXX [3064.0096] | satisfied
XXXXRXXXX [3064.0095] | satisfied
XXXXXEXXX [3064.0104] | not satisfied
XXXXPXXXX [3064.0093] | satisfied
XXXXXXQXX [3064.0134] | satisfied
XXXXXXXLX [3064.0150] | satisfied
XXXXXXXTX [3064.0157] | satisfied
XXXXXXKXX [3064.0129] | not satisfied
XXXVXXXXX [3064.0078] | satisfied
XXXXXCXXX [3064.0102] | not satisfied
XXXQXXXXX [3064.0074] | satisfied
XXXXXXIXX [3064.0128] | not satisfied
XXXXXXXGX [3064.0146] | not satisfied
XXXXXPXXX [3064.0113] | not satisfied
XXXSXXXXX [3064.0076] | satisfied

----------
Reported IC50 values are given for each entry in this list.
target: HLA B*1501 (Homo sapiens, UniProt P01889, A329T/A93T/A95T/C349S/D201E/D98Y/E187L/E204Q/E69M/E70A/K202T/N87E/Q94N/R155S/R180W/S121R/S35A/S48A/V306I/V36M/Y140S/Y91S); assay: biochemical
Where a SMILES comes first, the peptide text is derived from it.

compound | IC50
CC[C@H](C)[C@H](NC(=O)[C@@H](NC(=O)[C@@H](N)Cc1ccccc1)[C@@H](C)CC)C(=O)N[C@@H](CCCCN)C(=O)N[C@@H](CO)C(=O)N[C@@H](CO)C(=O)N[C@@H](Cc1ccc(O)cc1)C(=O)N[C@H](C(=O)N[C@@H](Cc1ccccc1)C(=O)O)C(C)C [3102.0827] (H-FIIKSSYVF-OH) | 3.2 nM
CC[C@H](C)[C@H](NC(=O)[C@@H](NC(=O)[C@@H](N)CC(C)C)[C@@H](C)O)C(=O)N[C@@H](C)C(=O)N[C@@H](CS)C(=O)N[C@@H](CCCNC(=N)N)C(=O)N[C@H](C(=O)N[C@@H](CO)C(=O)N[C@@H](CC(C)C)C(=O)O)C(C)C [3102.0376] (H-LTIACRVSL-OH) | 76 nM
CC[C@H](C)[C@H](NC(=O)[C@H](Cc1ccccc1)NC(=O)[C@@H](N)Cc1ccc(O)cc1)C(=O)N[C@@H](CCCCN)C(=O)N[C@@H](Cc1c[nH]cn1)C(=O)N[C@H](C(=O)N[C@@H](CC(C)C)C(=O)N[C@@H](C)C(=O)N[C@@H](Cc1ccccc1)C(=O)O)C(C)C [3102.0907] (H-YFIKHVLAF-OH) | 2.5 nM
